Biological target: hCRTH2 receptor (Homo sapiens)
Construct: expressed in transfected cells; host or cells: clonal HEK 293 cell line (membranes)
Sequence (Q9Y5Y4 whole entry): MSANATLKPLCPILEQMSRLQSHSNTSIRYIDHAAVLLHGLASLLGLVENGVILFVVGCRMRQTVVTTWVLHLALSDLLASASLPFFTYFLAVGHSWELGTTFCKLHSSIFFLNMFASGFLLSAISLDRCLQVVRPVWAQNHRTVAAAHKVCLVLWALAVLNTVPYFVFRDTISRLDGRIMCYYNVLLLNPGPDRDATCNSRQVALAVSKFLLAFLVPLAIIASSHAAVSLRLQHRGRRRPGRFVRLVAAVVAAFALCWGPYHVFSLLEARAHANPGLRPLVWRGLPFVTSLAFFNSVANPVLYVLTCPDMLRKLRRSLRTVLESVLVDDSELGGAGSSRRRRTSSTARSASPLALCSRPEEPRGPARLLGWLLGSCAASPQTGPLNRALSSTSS
Test: Intracellular calcium mobilization assay (FLIPR), antagonism of prostaglandin D2
Assay type: cell-based
Settings: HEK-293 cells expressing hCRTH2, agonist prostaglandin D2 10 nM; read-out: hCRTH2 FLIPR IC50
pIC50: −log10 of the molar value.
MEASUREMENT_NAME: pIC50

Some solved entries appear below for comparison.
| MOLECULE | pIC50 |
| --- | --- |
| O=C(O)Cn1c(SCCC(c2ccccc2)c2ccccc2)nc2ccc([N+](=O)[O-])cc21 | 6.67 |
| CCOC(=O)c1ccc(N(CCCSc2nc3ccccc3n2CC(=O)O)C(=O)CC(c2ccccc2)c2ccccc2)cc1 | 6.89 |
| O=C(O)Cn1c(SCC2CCN(C(=O)c3ccc(Br)cc3)C2)nc2cc(F)ccc21 (racemic) | 7.06 |
| COc1ccc(C(=O)N2CCc3ccccc32)cc1CSc1nc2cc(F)ccc2n1CC(=O)O | 8.40 |
| COC(=O)c1ccc(OC)c(CSc2nc3ccccc3n2CC(=O)O)c1 | 6.70 |

P. CCCC(=O)N1CCCC(CSc2nc3cc(Cl)c(Cl)cc3n2CC(=O)O)C1 (centres unmarked)
Q. COC(=O)c1cccc(CSc2nc3cc([N+](=O)[O-])ccc3n2CC(=O)O)c1
IN: Kindly identify the item with the lower pIC50 figure among these two: P and Q Record your answer as the label of the chosen record.
OUT: P
(P: 6.83, Q: 7.82)

----------
Molecular target: hCRTH2 receptor (Homo sapiens)
Construct: expressed in transfected cells; host or cells: clonal HEK 293 cell line (membranes)
Assay: CRTH2 membranes radioligand binding assay ({3H}-PGD2); antagonist binding to the CRTH2 receptor
Conditions: {3H}-PGD2 radioligand binding, membranes of HEK 293 cells expressing recombinant hCRTH2; read-out: hCRTH2 BDG IC50
pIC50: −log10 of the molar value.
MEASUREMENT_NAME: pIC50

Recorded results for 2 compounds are shown here.
| COMPOUND | ENDPOINT_VALUE |
| --- | --- |
| COc1ccc(C(C)=O)cc1CSc1nc2cc(F)ccc2n1C(C)C(=O)O (racemic) | 7.89 |
| COc1ccc(C(C)=O)cc1CSc1nc2ccccc2n1CC(=O)O | 8.05 |

I. O=C(O)Cn1c(SCC2CCN(C(=O)c3ccc(Br)cc3)C2)nc2cc(F)ccc21 (racemic)
II. CCOC(=O)c1ccc(N(CCCSc2nc3ccccc3n2CC(=O)O)C(=O)C(c2ccccc2)C2CCCCC2)cc1 (racemic)
IN: Which numeric pIC50 is bigger, that of I or that of II ? Use the label to indicate which entry you chose.
OUT: II
(II: 8.15, I: 7.64)
